Recorded pIC50 for the following compounds
Biological target: Tubulin
Test: Inhibition of tubulin polymerization in Homo sapiens (human) solid tumor cells
Give the value as a plain number.

>>> observed_measurement("COc1ccc(Oc2cc(OC)c(OC)c(OC)c2)cc1O")
4.79
>>> observed_measurement("COc1ccc(C(O)C(O)c2cc(OC)c(OC)c(OC)c2)cc1O (centres undefined)")
4.66
>>> observed_measurement("COc1cc(/C=C\\c2ccc(C)c(N=[N+]=[N-])c2)cc(OC)c1OC")
5.92

Given the compound `COc1cc(/C=C\c2ccc(C)cc2)cc(OC)c1OC` , what is its reported pIC50? 5.7

Requested read-out: pIC50. Entry: `COc1ccc(CCc2cc(OC)c(OC)c(OC)c2)cc1O` 5.48

// pIC50 lookup, key: `COc1ccc(NCc2cc(OC)c(OC)c(OC)c2)cc1O.Cl` 5.05

Dear colleague, I am looking for the recorded pIC50 of the following compound: `COc1ccc(Cc2cc(OC)c(OC)c(OC)c2)cc1O` 5.11

Which value of pIC50 has been reported for `COc1cc(/C=C\c2ccc(OC(C)=O)cc2)cc(OC)c1OC` in the records? 4.54

----------
Molecular target: Tubulin
Assay: Inhibition of tubulin polymerization in Homo sapiens (human) solid tumor cells
Give 1.0 when the value for pIC50 is at least 5. Give 0.0 when it is less.

Check the entry `COc1ccc(NCc2cc(OC)c(OC)c(OC)c2)cc1` : does pIC50 equal or exceed 5? 0.0

----------
Molecular target: Tubulin
Test: Inhibition of tubulin polymerization in Homo sapiens (human) solid tumor cells
# Lookup of reported pIC50 keyed by entry
Kindly provide the number alone.

Below are worked cases with known answers.
>>> observed_measurement("COc1ccc(/C=C(/C=O)c2cc(OC)c(OC)c(OC)c2)cc1")
5.4
>>> observed_measurement("COc1ccc(CCCCc2cc(OC)c(OC)c(OC)c2)cc1O")
4.26
>>> observed_measurement("COc1cc(/C=C\\c2ccccc2)cc(OC)c1OC")
4.44

Now, please, on to the next compound.
What measured pIC50 goes with `COc1ccc(/C=C\c2cc(OC)c(OC)c(OC)c2)cn1` ? 5.7

----------
Molecular target: Tubulin
Experiment: Inhibition of tubulin polymerization in Homo sapiens (human) solid tumor cells
The entries below are paired with their reported pIC50.
Lab note: write the figure by itself, no unit.

Before answering, review these 6 worked examples.
>>> observed_measurement("COc1ncc(/C=C\\c2cc(OC)c(OC)c(OC)c2)cn1")
5.52
>>> observed_measurement("CCCOc1ccc(/C=C\\c2cc(OC)c(OC)c(OC)c2)cc1")
5.22
>>> observed_measurement("COc1ccc(/C=C(/C(N)=O)c2cc(OC)c(OC)c(OC)c2)cc1N")
5.52
>>> observed_measurement("COc1cc2ccc3cc(O)c(C)cc3c2c(OC)c1OC")
4
>>> observed_measurement("COc1ccc(/C=C(/C#N)c2cc(OC)c(OC)c(OC)c2)cc1O")
5.3
>>> observed_measurement("COc1cc(/C=C\\c2ccc(C)c(N)c2)cc(OC)c1OC")
5.4

Please provide the recorded pIC50 for `COc1ccc(COc2cc(OC)c(OC)c(OC)c2)cc1O` , tested on Tubulin. 5.46

# get_value(readout= pIC50, system= Tubulin) for `COc1cc(/C=C\c2ccc(N(C)C)cc2)cc(OC)c1OC` 5.47

Record `COc1cc(/C=C\c2ccc(Br)cc2)cc(OC)c1OC` : what is its pIC50 with Tubulin? 5.51

# returns recorded pIC50 (system: Tubulin) for `COc1cccc(/C=C\c2cc(OC)c(OC)c(OC)c2)c1` 5.06

Enter reported pIC50 observed with Tubulin for `COc1ccc(\C=C/C=C/C=C/c2cc(OC)c(OC)c(OC)c2)cc1O` 5

# query: pIC50 | item `COc1cc(/C=C\c2ccc(Cl)c(N)c2)cc(OC)c1OC` | system: Tubulin 5.52

Please tell me: pIC50 of `COc1cc(/C=C\c2ccn(C)c(=O)c2)cc(OC)c1OC` , system Tubulin? 5.7

Recorded pIC50 for `COc1cc(/C=C\c2cccc(SC)c2)cc(OC)c1OC` with Tubulin, please? 5.21

// fetch Tubulin pIC50 for `COc1ccc(/C(C#N)=C\c2cc(OC)c(OC)c(OC)c2)cc1N` 5.3

Hello, I am looking for reported pIC50 with Tubulin for `COc1cc(CNc2ccc(C)c(O)c2)cc(OC)c1OC.Cl` . Could you help? 5.46
